Can you tell me melting point for the items I'm about to list?

Please review the following examples before continuing.
[[record]]
chemical_string = "COC(=O)c1cc(C(C)(C)C)sc1NC(=O)Nc1ccc(C)cc1"
measured_result = "109 to 111 °C"

[[record]]
chemical_string = "COC(=O)c1cc(C(C)C)sc1NC(=O)Nc1ccc(C)s1"
measured_result = "70 to 73 °C"

[[record]]
chemical_string = "COC(=O)c1sc(C(C)C)cc1NC(=O)Nc1ccc(C)cc1"
measured_result = "93 to 95 °C"

[[record]]
chemical_string = "COC(=O)c1cc(C(C)C)sc1NC(=O)Nc1ccc(C)cc1"
measured_result = "49 to 51 °C"


Batch of 2 molecules: report melting point for each.
1. COC(=O)c1cc(C(C)(C)C)sc1NC(=O)Nc1ccccc1
2. CCc1nnc(NC(=O)Nc2sc(C(C)(C)C)cc2C(=O)OC)s1

[reply]
80 to 82 °C
206 to 208 °C
